System Name: T1, CD81 (UniProt P60033 1-236, limits assumed)
T1 construct: whole, on cells; also called CD81 receptor
T1 sequence (looked up): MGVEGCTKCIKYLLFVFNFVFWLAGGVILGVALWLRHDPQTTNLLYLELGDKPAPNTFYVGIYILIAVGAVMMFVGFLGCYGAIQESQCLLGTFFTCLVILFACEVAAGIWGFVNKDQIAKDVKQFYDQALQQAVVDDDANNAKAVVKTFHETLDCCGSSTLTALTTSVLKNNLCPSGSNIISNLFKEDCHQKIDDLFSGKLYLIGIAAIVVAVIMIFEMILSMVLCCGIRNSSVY
Assay Text: cell ELISA;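 also: antibody binding to HuH7 cells expressing CD81 versus a CD81-negative HuH7 control line, bound antibody detected by secondary reagent, absorbance at 450 nm with 620 nm reference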
Mark 1 for reported ELISA data of 0.7 or greater; mark 0 for anything smaller.

- Binder: "CD81K13 HC 5b-hVH_1_69-GA / LC 05-hVK_1_39 (antibody, V domains shown, human constant region) VH: QVQLVQSGAELVKPGSSVKVSCKASGFNFKDSYLHWVRQAPGQGLEWMGRIDTGNGNVKFDPKFQGRVTITTDESTSTAYMELSSLRSEDTAVYYCVPYGYGFHSWGQGTLVTVSS VL: DIQMTQSPSSLSASVGDRVTITCRASENIYRTLAWYQQKPGKAPKLLIYAATTLASGVPSRFSGSGSGTDFTLTISSLQPEDFATYYCQHFWGTPWTFGQGTKVEIK"
  Class Assignment: 1
- Binder: "CD81K13 HC CD81K13 / LC 1c-hVK_3_15 (antibody, V domains shown, human constant region) VH: EVRLHQSAAQLVQPGASVRLSCTTSGFNFKDSYLHWVKQRPAQGLEWIGRIDTGNGNVKFDPKFQDKATITTDIPSMTAYLHLSNLTSEDTAVYYCVPYGYGFHSWGDGTTLTVSS VL: EIVMTQSPATLSVSPGERATLSCRASENIYRTLAWYQQKPGQAPRLLIYGATTLADGIPARFSGSGSGTEFTLTISSLQSEDFGVYYCQHFWGTPWTFGQGTKVEIK"
  Class Assignment: 1
- Binder: "CD81K13 HC 02-hVH_1_3 / LC 01-hVK_3_15 (antibody, V domains shown, human constant region) VH: QVQLVQSGAEVKKPGASVKVSCKASGYTFTDSYMHWVRQAPGQRLEWMGRIDTGNGNTKYSQKFQGRVTITTDTSASTAYMELSSLRSEDTAVYYCAPYGYGFHSWGQGTLVTVSS VL: EIVMTQSPATLSVSPGERATLSCRASENIYRTLAWYQQKPGQAPRLLIYGATTRATGIPARFSGSGSGTEFTLTISSLQSEDFGVYYCQHFWGTPWTFGQGTKVEIK"
  Class Assignment: 0
